These molecules were tested on Sodium-dependent serotonin transporter (Rattus norvegicus); pIC50 is the recorded read-out.
Sequence (P31652 whole entry): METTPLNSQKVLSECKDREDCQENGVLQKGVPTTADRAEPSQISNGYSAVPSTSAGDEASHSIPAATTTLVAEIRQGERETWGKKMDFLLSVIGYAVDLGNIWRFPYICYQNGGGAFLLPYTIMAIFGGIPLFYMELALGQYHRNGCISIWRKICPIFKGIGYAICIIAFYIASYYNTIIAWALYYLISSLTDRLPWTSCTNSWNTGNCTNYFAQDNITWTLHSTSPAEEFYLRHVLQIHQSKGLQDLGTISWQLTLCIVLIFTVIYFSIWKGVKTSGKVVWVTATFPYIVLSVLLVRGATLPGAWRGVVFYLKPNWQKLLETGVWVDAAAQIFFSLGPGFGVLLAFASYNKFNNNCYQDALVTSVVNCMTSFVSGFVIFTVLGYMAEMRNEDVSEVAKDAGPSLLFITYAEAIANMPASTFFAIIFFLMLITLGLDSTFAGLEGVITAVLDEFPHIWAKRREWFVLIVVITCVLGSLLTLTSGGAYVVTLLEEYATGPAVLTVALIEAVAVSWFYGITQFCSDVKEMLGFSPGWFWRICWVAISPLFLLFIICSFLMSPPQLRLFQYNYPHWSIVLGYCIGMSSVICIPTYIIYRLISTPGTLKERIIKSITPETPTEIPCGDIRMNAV
A value of pIC50 is the negative decimal logarithm of a concentration given in moles per litre.

Reference set (3 entries):
Molecule	Numeric value
CN(C)C1C2CCC(CC2OC(=O)c2ccccc2)C1c1ccccc1 (stereo in doubt; 11)	7.28
CN(C)C1C2CCC(CC2O)C1c1ccccc1 (stereo in doubt; 7)	5.08
CN(C)CC1C2CCC(CC2)C1c1ccc(Cl)c(Cl)c1 (configuration not stated)	6.58

Prompt: Field request: pIC50 | item: CN(C)C1C2CCC(CC2O)C1c1ccccc1 (stereo in doubt; 14)
Response: 4.91

Prompt: Also need CC(=O)OC1CC2CCC1C(N(C)C)C2c1ccccc1 (stereo in doubt; 17) , thanks.
Response: 4.64

Prompt: Also need CC(=O)OC1CC2CCC1C(N(C)C)C2c1ccccc1 (stereo in doubt; 16) , thanks.
Response: 5.32

====

These molecules were tested on Norepinephrine transporter (Rattus norvegicus, UniProt Q9WTR4); log10 of IC50 is the recorded read-out.
Sequence (Q9WTR4 whole entry): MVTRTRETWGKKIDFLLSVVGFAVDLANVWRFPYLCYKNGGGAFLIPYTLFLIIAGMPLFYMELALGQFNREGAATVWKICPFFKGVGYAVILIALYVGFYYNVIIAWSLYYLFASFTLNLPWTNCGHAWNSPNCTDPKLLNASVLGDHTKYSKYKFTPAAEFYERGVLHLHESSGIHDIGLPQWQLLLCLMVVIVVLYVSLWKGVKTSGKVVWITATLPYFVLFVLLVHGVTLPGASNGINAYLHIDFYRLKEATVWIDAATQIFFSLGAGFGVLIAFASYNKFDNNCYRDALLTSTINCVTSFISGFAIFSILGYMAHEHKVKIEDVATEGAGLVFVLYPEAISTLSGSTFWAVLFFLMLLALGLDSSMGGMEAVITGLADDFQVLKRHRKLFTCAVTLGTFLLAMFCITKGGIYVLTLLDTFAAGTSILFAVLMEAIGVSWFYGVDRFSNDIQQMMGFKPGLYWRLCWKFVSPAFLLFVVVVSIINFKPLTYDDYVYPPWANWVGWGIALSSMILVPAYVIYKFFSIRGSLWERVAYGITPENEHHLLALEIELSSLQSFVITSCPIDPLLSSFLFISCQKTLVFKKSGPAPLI
Units before log transform: µM; reported quantity: IC50; transform: log10.

Reference set (5 entries):
Molecule	Subject of test	log10 of IC50
CN(C)C1C2CCC(CC2OC(=O)c2ccccc2)C1c1ccccc1 (stereo in doubt; 18)	Norepinephrine transporter (Rattus norvegicus, UniProt Q9WTR4)	0.87
CN(C)C1C2CCC(CC2O)C1c1ccccc1 (stereo in doubt; 8)	Norepinephrine transporter (Rattus norvegicus, UniProt Q9WTR4)	0.86
CN(C)C1C2CCC(CC2=O)C1c1ccccc1 (stereo in doubt; 13)	Norepinephrine transporter (Rattus norvegicus, UniProt Q9WTR4)	1.03
CN(C)C1C2CCC(CC2O)C1c1ccccc1 (stereo in doubt; 15)	Norepinephrine transporter (Rattus norvegicus, UniProt Q9WTR4)	1.54
CN(C)CC1C2CCC(CC2)C1c1ccc(Cl)c(Cl)c1 (configuration not stated)	Norepinephrine transporter (Rattus norvegicus, UniProt Q9WTR4)	-1.02

Prompt: Field request: log10 of IC50 | item: CN(C)C1C2CCC(CC2OC(=O)c2ccccc2)C1c1ccccc1 (stereo in doubt; 11)
Response: -0.65

Prompt: Also need CC(=O)OC1CC2CCC1C(N(C)C)C2c1ccccc1 (stereo in doubt; 16) , thanks.
Response: 1.02

====

# Subject of test: Sodium-dependent dopamine transporter (Rattus norvegicus)
# Sequence (P23977 whole entry): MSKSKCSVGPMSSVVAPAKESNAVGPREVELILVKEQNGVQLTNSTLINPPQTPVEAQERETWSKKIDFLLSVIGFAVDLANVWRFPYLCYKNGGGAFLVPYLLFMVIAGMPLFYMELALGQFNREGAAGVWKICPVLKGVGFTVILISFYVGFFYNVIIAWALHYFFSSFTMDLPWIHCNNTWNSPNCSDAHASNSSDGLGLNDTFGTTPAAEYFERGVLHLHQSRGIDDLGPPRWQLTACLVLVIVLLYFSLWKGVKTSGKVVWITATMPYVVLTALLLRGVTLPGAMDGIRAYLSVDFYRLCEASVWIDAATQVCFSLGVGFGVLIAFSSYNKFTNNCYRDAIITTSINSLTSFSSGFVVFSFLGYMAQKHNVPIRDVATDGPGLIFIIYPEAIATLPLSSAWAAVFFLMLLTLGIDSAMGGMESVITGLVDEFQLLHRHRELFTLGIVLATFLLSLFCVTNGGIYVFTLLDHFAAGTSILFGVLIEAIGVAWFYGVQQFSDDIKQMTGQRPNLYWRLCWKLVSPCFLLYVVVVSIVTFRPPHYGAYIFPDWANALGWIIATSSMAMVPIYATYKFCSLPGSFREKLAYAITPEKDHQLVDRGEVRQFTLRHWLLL
# Experimental details: Inhibitory potency against [3H]DA uptake […]
Metric: pIC50
A value of pIC50 is the negative decimal logarithm of a concentration given in moles per litre.

Reference set (6 entries):
Compound	Subject of test	pIC50
CN(C)C1C2CCC(CC2OC(=O)c2ccccc2)C1c1ccccc1 (stereo in doubt; 19)	Sodium-dependent dopamine transporter (Rattus norvegicus)	5.08
CC(=O)OC1CC2CCC1C(N(C)C)C2c1ccccc1 (stereo in doubt; 16)	Sodium-dependent dopamine transporter (Rattus norvegicus)	4.79
CN(C)C1C2CCC(CC2O)C1c1ccccc1 (stereo in doubt; 7)	Sodium-dependent dopamine transporter (Rattus norvegicus)	5.35
CN(C)C1C2CCC(CC2=O)C1c1ccccc1 (stereo in doubt; 6)	Sodium-dependent dopamine transporter (Rattus norvegicus)	5.04
CN(C)C1C2CCC(CC2OC(=O)c2ccccc2)C1c1ccccc1 (stereo in doubt; 11)	Sodium-dependent dopamine transporter (Rattus norvegicus)	6.43
CC(=O)OC1CC2CCC1C(N(C)C)C2c1ccccc1 (stereo in doubt; 17)	Sodium-dependent dopamine transporter (Rattus norvegicus)	4.12

Prompt: Field request: pIC50 | item: CN(C)C1C2CCC(CC2O)C1c1ccccc1 (stereo in doubt; 14)
Response: 4.96

Prompt: Also need CN(C)C1C2CCC(CC2=O)C1c1ccccc1 (stereo in doubt; 13) , thanks.
Response: 4.61

Prompt: Also need CN(C)C1C2CCC(CC2O)C1c1ccccc1 (stereo in doubt; 8) , thanks.
Response: 5.55
